Target: T1, human C type Lectin Like molecule 1 (CLL-1) on cells (human, UniProt Q5QGZ9 1-265)
T1 construct: also called hCLL-1; CLEC12A
T1 sequence: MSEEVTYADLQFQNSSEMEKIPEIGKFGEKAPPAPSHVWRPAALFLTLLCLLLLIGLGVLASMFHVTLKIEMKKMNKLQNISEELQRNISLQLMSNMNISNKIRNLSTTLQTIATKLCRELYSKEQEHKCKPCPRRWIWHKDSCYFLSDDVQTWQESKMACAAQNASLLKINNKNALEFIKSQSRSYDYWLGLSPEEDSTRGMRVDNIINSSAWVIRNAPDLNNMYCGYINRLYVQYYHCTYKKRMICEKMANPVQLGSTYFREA
Assay: FACS, recombinant 293 cells expressing human CLL-1
Would you mind telling me the reported % of live cells with antibody binding of each entry?

Exercise: Can you look up the measured % of live cells with antibody binding of CLL-1 antibody clone G12 (antibody, IgG1, V domains shown) VH: QVQLQQPGAELVKPGASMKMSCKASGYTFPSSNIHWLKQTPGQGLEWIGVIYPGNGDTSYNQKFKDKATLTTDKSSSTAYMQLSSLTSEDSAIYFCARVYNWHFDVWGAGTTVTVSS VL: NIVLTQSPASLAVSLGQRATISCRASESVDGYGDIFMLWYQQKPGQPPKLLIYFASNLESGVPARFSGSGSRTDFTLTIDPVEADDAATYYCQQNNEDPYTFGGGTKLEIKR for me?
Key: 99.9%

Exercise: Returns the measured % of live cells with antibody binding for the input binder. Input: CLL-1 antibody clone M2 (antibody, IgG1, V domains shown) VH: EVQLRQSGPELVKPGASVKMSCKASGYTFTSYFMHWVKQKPGQGLEWIGFINPYNDGTKYNEKFKGKATLTSDKSSSTAYMELNSLTSEDSAVYYCTRDDGYYDYAMDYWGQGTSVTVSS VL: DIQMTQSPSSLSASLGERVSLTCRASQEISVYLSWLQQKPDGTIKRLIYAASTLDSGVPERFSGSRSGSDYSLTISSLESEDFADYYCLQYASYPYTFGGGTKLEIKR
Key: 99.9%

Exercise: Would you mind telling me what % of live cells with antibody binding value was observed for CLL-1 antibody clone M29 (antibody, IgG1, V domains shown) VH: EVQLQQSGPELVKPGASVKMSCKASGYIFTSYVMYWVKQKPGQGLEWIGYINPYNDGTKYNEKFKGKATLTSDKSSSTAYMELSSLTSEDSAVYYCARYYDYDYYFDYWGQGTTLTVSS VL: DIQMTQSPSSLSASLGGKVTITCKASQDINKYIAWYQHKPGKGPRLLIHYTSTLQPGIPSRFSGSGSGRDYSFSISNLEPEDIATYYCLQYDYLWTFGGGTKLEIK ?
Key: 99.9%
